Every entry's value here was drawn from ChEMBL document CHEMBL1201862.

target: Aminopeptidase N (Plasmodium falciparum FcB1/Columbia, UniProt O96935); assay: malaria alanyl aminopeptidase activity blockers – biochemical, fluorogenic H-Leu-NHMec substrate, 1536-well (AID 1445); set-up: species or system Plasmodium falciparum 3D7, 3D7
Sequence (O96935 whole entry): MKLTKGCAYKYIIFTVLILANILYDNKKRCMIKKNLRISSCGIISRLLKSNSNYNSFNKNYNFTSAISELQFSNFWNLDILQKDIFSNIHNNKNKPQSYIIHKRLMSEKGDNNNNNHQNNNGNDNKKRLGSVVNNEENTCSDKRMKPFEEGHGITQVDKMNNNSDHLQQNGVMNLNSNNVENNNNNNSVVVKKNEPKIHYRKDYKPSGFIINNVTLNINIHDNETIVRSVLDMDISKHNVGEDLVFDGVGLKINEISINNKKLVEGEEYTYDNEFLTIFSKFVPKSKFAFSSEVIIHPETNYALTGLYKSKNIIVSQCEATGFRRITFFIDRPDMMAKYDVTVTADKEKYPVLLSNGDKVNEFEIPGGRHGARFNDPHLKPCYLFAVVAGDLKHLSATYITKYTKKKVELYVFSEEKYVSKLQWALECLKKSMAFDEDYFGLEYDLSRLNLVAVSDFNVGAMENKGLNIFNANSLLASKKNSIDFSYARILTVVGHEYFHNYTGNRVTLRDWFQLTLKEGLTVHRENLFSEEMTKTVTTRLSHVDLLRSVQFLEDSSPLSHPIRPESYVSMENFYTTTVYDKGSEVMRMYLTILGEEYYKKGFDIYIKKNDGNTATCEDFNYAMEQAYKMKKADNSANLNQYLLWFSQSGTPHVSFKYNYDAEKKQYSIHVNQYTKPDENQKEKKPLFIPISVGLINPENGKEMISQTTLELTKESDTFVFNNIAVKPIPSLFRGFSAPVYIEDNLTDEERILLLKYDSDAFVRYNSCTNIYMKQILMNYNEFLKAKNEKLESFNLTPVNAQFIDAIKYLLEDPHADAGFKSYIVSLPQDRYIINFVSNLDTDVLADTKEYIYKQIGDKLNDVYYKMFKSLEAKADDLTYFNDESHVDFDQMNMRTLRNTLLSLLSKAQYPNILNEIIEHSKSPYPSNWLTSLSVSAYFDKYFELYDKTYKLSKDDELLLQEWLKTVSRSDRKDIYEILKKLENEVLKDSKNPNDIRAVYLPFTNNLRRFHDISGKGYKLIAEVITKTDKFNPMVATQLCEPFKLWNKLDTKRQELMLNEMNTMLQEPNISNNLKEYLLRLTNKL
Active and inactive are the calls of the source.
Catalogue of molecules with associated IC50

Examples with their reported IC50 follow.
1) O=C(O)Cn1cc(/C=C2/SC(=O)N(CC(=O)N3CCCCCC3)C2=O)c2ccccc21 ... 82.3 µM (active)
2) Nc1ccc(-c2nc3ccc(N)cc3s2)cc1 ... 21.3 µM (active)
3) CC(/C=C1\SC(=S)N(NS(=O)(=O)c2ccc(C)cc2)C1=O)=C\c1ccccc1 ... 64 µM (active)

Next:
Problem: Kindly state the measured IC50 obtained for CC1=CC(c2ccc(Cl)cc2)N2NC(NS(=O)(=O)c3ccc(C)cc3)=NC2=N1 (centres undefined) with Aminopeptidase N (Plasmodium falciparum FcB1/Columbia, UniProt O96935).
Solution: 104 µM (active)

###

Catalogue of compounds with associated EC50
assay: alpha-synuclein stem-loop luciferase translation blockers – H4 neuroglioma cells, luminescence, confirmation (AID 1988); type: functional, cell-based
Active and inactive are the calls of the source.

Examples with their reported EC50 follow.
1. O=C(c1nc2nc(-c3ccc(Cl)cc3)cc(C(F)(F)F)n2n1)N1CCOCC1 ... 15.9 µM (active)
2. Cc1ccc2c(COC(=O)C3=COCCO3)cc(=O)oc2c1 ... 8.1 µM (inconclusive)
3. CCn1nnc2cc(C(=O)NCCc3ccccc3F)ccc21 ... 5.03 µM (active)
4. C1=C(c2cccc3ccccc23)N2CCN=C2S1 ... > 120 µM (not active)
5. CCn1c(C(=O)NC(C)c2ccc3c(c2)OCCO3)cc2sccc21 (configuration not stated) ... 22.5 µM (active)
6. CC(C)Cc1nc2n[nH]c(N)c2c2c1COC(C)(C)C2 ... 21.4 µM (active)

Next:
Problem: For `FC(F)(F)c1nnc2c(Sc3ccc(Cl)cc3)nc3ccccc3n12` , what is its reported EC50?
Solution: > 120 µM (not active)

###

Catalogue of molecules with associated AC50
molecular target: UniProtKB P08684; conditions: Potency
Sequence (P08684 whole entry): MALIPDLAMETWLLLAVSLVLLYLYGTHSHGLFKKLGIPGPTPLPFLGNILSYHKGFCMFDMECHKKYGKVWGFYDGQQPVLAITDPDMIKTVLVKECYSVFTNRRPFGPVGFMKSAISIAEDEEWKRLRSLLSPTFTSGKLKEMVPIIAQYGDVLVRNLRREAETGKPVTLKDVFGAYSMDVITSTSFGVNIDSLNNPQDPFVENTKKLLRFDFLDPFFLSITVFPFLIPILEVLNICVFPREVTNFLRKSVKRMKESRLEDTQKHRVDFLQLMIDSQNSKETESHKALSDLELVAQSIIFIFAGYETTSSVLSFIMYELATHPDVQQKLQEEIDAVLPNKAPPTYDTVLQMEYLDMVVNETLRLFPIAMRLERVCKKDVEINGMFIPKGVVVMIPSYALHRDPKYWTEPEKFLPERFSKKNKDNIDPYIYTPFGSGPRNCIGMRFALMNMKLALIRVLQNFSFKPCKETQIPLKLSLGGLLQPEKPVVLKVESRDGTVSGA

Examples with their reported AC50 follow.
1. COC(=O)C/N=C1/OC(=O)N2C(=O)C3=C4[C@@H](C[C@H]5C(=O)N(c6ccccc6)C(=O)[C@H]5[C@H]4[C@@]12Cc1ccccc1)[C@H]1C(=O)N(c2ccccc2)C(=O)[C@H]1[C@H]3C ... 6.31 µM (inconclusive)
2. CC1(C)C(O)C=C[C@@]2(C)C1CC(=O)O[C@@]1(C)C3=CC(=O)OC(c4ccoc4)[C@]3(C)CCC21 (stereo partly drawn) ... 2 µM (inconclusive)

Problem: Kindly state the measured AC50 obtained for CC(=O)OCC1OC(Oc2cc(OC(C)=O)c3c(=O)cc(-c4ccc(OC(C)=O)cc4)oc3c2)[C@@H](OC(C)=O)C(OC(C)=O)C1OC(C)=O (stereo partly drawn) with UniProtKB P08684.
Solution: 10 µM (inconclusive)

Problem: And `CCCCNc1nc(C)nc2c1nc(-c1ccccc1)n2CC1CCN(C)CC1` ?
Solution: 15.8 µM (inconclusive)

###

test: NIH3T3 cell viability loss – ATP luminescence, mouse fibroblasts, counter-screen, dose response (AID 2010); format: functional, cell-based;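 further: cells exposed to compound for about 90 hours before reading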
Active and inactive are the calls of the source.
Measurement Type: EC50

Examples with their reported EC50 follow.
1. c1ccc(Oc2nc(-c3ccccn3)nc3ccccc23)cc1 ... > 60 µM (not active)
2. O=C(Nc1ccn(Cc2c(F)c(F)cc(F)c2F)n1)c1ccc(COc2ccccc2Cl)cc1 ... > 60 µM (inconclusive)
3. Cc1ccc2nc(N(CCCN(C)C)C(=O)c3ccc(S(=O)(=O)N4CCOCC4)cc3)sc2c1 ... 10.8 µM (active)
4. O=C(COc1ccccc1C(=O)NCc1ccncc1)Nc1ccc(Br)cc1 ... > 60 µM (not active)
5. CC1=C(C(=O)Nc2ccccc2F)C(c2ccsc2)C2=C(O)CC(c3ccccc3)CC2=N1 (configuration not stated) ... 8.96 µM (active)
6. Cc1cccc(CSc2cccc3cccnc23)c1 ... 9.65 µM (active)
7. Nc1ccccc1-[n+]1c(-c2ccccc2)cc(-c2ccccc2)cc1-c1ccccc1.[O-][Cl+3]([O-])([O-])[O-] ... > 60 µM (not active)
8. COc1ccc(Nc2nc(NCC3CCCO3)c3ccccc3n2)c(OC)c1 (configuration not stated) ... > 30 µM (not active)
9. O=C(Nc1cccc(F)c1)NC1CCN(Cc2ccccc2)CC1 ... > 60 µM (not active)
10. CCOC(=O)c1cnc(-n2nc(C)cc2C)nc1NC1CCCCC1 ... 12.8 µM (active)

Problem: For `CCOc1cc(CNc2ccc(Br)cc2)cc(Br)c1OCC(=O)NC(C)(C)C` , what is its reported EC50?
Solution: 37.3 µM (active)

Problem: And O=C(NC1CCCCC1)C(c1cccs1)N(C(=O)Cc1c[nH]c2ccccc12)c1ccc(F)cc1 (configuration not stated) ?
Solution: 9.47 µM (active)

###

target: Corticotropin-releasing factor receptor 2/Corticotropin-releasing factor-binding protein (Homo sapiens, UniProt P24387+Q13324); assay: Dose Response confirmation of uHTS hits for small molecule antagonists of the CRF-binding protein and CRF-R2 receptor complex.; type: functional; details: read-out: IC50_Mean
Sequence (Q13324 whole entry): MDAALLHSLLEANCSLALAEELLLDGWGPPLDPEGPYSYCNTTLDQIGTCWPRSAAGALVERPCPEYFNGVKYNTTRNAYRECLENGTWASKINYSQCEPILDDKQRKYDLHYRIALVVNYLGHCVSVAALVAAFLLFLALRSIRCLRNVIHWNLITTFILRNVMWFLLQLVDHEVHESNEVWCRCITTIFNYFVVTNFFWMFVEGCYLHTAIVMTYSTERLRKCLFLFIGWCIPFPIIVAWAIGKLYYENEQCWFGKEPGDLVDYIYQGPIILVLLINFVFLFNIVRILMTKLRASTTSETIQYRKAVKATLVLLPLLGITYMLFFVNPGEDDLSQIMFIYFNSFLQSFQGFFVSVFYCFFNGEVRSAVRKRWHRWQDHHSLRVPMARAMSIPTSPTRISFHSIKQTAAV
Sequence (P24387 whole entry): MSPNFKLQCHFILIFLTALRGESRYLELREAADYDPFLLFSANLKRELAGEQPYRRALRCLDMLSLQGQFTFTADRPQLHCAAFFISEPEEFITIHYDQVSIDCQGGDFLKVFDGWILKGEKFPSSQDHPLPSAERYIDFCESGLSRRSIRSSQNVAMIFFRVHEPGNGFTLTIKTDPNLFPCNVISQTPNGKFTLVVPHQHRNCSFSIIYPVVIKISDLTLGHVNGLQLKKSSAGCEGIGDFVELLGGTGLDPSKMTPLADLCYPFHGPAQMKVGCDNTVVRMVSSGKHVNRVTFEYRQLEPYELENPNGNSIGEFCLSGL
Calls of active or inactive are those of the source.
Use one of these outcomes when replying: y = active, n = inactive

Problem: Write down the call the test reported for this molecule. Item: `Fc1ccccc1CNC(=S)Nc1ccc(Cl)cc1`
Solution: y

Problem: And CC1(C)C(/C=C/C=C/C=C/C=C2\N(CCCCS(=O)(=O)O)c3ccc4ccccc4c3C2(C)C)=[N+](CCCCS(=O)(=O)[O-])c2ccc3ccccc3c21 [INDOCYANINE GREEN] ?
Solution: n

Problem: And C=CCOC(=O)C(C#N)c1nc2ccccc2nc1N1CCN(c2ccccc2OCC)CC1 (stereo not given) ?
Solution: n

Problem: And `O=C(OCc1cc(=O)n2ccsc2n1)C1(c2ccccc2)CC1` ?
Solution: n

Problem: And `COc1cccc(N2CCN(S(=O)(=O)c3c(C)[nH]c(C)c3C(=O)N3CCCC3)CC2)c1` ?
Solution: n

Problem: And `CC(=O)Oc1ccc2cc(-c3cccnc3)c(=O)oc2c1` ?
Solution: n

###

Biological target: UniProt Q9BQF6
Sequence (Q9BQF6 whole entry): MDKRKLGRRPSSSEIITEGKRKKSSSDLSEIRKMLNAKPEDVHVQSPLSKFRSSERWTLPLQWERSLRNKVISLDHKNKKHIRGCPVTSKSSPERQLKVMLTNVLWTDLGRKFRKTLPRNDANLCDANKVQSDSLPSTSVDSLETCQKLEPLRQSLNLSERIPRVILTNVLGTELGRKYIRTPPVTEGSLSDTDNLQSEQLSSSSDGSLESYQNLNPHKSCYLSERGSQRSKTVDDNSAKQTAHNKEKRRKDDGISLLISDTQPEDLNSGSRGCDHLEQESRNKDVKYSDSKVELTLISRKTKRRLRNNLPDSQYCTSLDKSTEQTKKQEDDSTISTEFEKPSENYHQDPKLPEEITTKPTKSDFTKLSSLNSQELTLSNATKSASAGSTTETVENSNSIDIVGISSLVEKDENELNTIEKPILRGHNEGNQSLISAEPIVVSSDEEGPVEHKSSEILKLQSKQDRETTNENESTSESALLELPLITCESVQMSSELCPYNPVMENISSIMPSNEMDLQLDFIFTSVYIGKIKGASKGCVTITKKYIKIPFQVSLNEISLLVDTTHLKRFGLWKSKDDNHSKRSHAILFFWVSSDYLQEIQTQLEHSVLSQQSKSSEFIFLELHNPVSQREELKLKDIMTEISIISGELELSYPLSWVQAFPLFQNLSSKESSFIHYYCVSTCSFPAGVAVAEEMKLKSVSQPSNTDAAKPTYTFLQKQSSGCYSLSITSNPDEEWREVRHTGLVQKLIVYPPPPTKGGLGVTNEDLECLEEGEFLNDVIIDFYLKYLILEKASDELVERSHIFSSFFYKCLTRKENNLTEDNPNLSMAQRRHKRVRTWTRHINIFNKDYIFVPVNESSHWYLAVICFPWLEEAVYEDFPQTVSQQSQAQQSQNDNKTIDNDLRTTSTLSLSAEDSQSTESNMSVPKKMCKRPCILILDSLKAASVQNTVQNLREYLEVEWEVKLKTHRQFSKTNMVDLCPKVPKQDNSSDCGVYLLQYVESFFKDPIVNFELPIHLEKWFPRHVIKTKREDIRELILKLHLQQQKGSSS
Format: functional
The source made the active and inactive calls.
Catalogue of molecules with associated IC50

Examples with their reported IC50 follow.
1) c1ccc2nc(-c3ccc(-n4ccnc4)cc3)ccc2c1 ... 5.47 µM (active)
2) Cc1ccc(NC2=C(NCCO)C(=O)c3ccccc3C2=O)cc1 ... 11.6 µM (active)
3) COc1cccc(C(=O)OCC(=O)c2ccc(Br)s2)c1 ... 10.3 µM (active)
4) CC(/C=C1\SC(=S)N(NS(=O)(=O)c2ccc(C)cc2)C1=O)=C\c1ccccc1 ... 43.9 µM (active)
5) Nc1[nH]n(-c2ccccc2)c(=O)c1N=Nc1ccccc1 ... 4.47 µM (active)

Problem: For `O=C(Nc1nc(=O)c2ccccc2s1)c1ccccc1` , what is its reported IC50?
Solution: 6.3 µM (active)

Problem: And `O=C(Nc1ccc(Cl)cc1)Nc1nccs1` ?
Solution: 7.33 µM (active)

Problem: And `CCSc1nsc(NC(=O)Nc2ccccc2F)n1` ?
Solution: 5.95 µM (active)

Problem: And `N=C1/C(=C/c2cccs2)C(=O)N=C2SN=C(SCc3ccccc3)N12` ?
Solution: 27.7 µM (active)
